FYI, the data here is from paper PMC10815823.

Test: single-oral-dose pharmacokinetic study, plasma AVA and metabolite concentrations in pediatric hypercholesterolemia stratified by SLCO1B1 c.521T>C genotype
Type: in vivo, human
Settings: human, plasma, oral, 10 mg, Table S3; Tanner Breast/Testicular Stage 5; mean (± SD); read-out: AUC0-24
reported metric: AUC(0-t)
The answer consists of two parts: a number and, after it, its unit.

Look at this molecule and give its reported AUC(0-t). CC(C)c1c(C(=O)Nc2ccccc2O)c(-c2ccccc2)c(-c2ccc(F)cc2)n1CCC1CC(O)CC(=O)O1 (stereo not drawn) [2-Hydroxy Atorvastatin Lactone, 2-hydroxyatorvastatin lactone]
12.9 ng·h/mL

Same lookup for `CC(C)c1c(C(=O)Nc2ccccc2)c(-c2ccccc2)c(-c2ccc(F)cc2)n1CC[C@@H]1C[C@@H](O)CC(=O)O1` , please.
8.5 ng·h/mL

Same thing, different molecule: CC(C)c1c(C(=O)Nc2ccccc2O)c(-c2ccccc2)c(-c2ccc(F)cc2)n1CC[C@@H](O)C[C@@H](O)CC(=O)O [2-Hydroxy Atorvastatin, 2-hydroxyatorvastatin]
8.1 ng·h/mL
